FYI, the data here is from patent US20250215039A1.

- Tested on: cancer cell lines
- assay: Cancer cell proliferation activity (CellTiterGlo, 72 h)
- Assay type: cell-based
- reported-conditions: Homo sapiens, Panc1005, 72 h, PANC1005 (pancreas), 72 h; read-out: IC50 cell proliferation
pIC50: −log10 of the molar value.
Short version: pIC50 at least 6 is Satisfied, less is Not satisfied.

Q: Answer whether pIC50 of CCC[C@]1(CO)O[C@@H](n2cnc3c(N)nc(F)nc32)[C@H](O)[C@@H]1O is greater than or equal to 6.
A: Satisfied

Q: Then C[C@]1(CO)O[C@@H](n2ccc(N)nc2=O)[C@@H](O)[C@@H]1O ?
A: Not satisfied

Q: Then Nc1nc(=O)n([C@H]2C[C@H](O)[C@](CO)(CF)O2)cc1F ?
A: Not satisfied

Q: Then Nc1nc(=O)n([C@H]2C[C@H](O)[C@@H](CO)O2)cc1F ?
A: Satisfied

Q: Then Nc1ccn([C@H]2C[C@H](O)[C@](CO)(CF)O2)c(=O)n1 ?
A: Not satisfied

Q: Then Nc1nc(F)nc2c1ncn2[C@@H]1O[C@H](CO)[C@@H](O)[C@H]1O ?
A: Satisfied

Q: Then C[C@]1(CO)O[C@@H](n2cnc3c(N)nc(F)nc32)[C@H](O)[C@@H]1O ?
A: Satisfied

Q: Then C[C@]1(CO)O[C@@H](n2ccc(N)nc2=O)C(F)(F)[C@@H]1O ?
A: Not satisfied

Q: Then Nc1nc(F)nc2c1ncn2[C@@H]1O[C@H](CO)[C@@H](O)[C@@H]1O ?
A: Not satisfied

----------
Record form. Attribute: log10 of IC50. Fill in for each entry.
- Test system: cancer cell lines
- assay: Cancer cell proliferation activity (CellTiterGlo, 72 h)
- Type: cell-based
- reported-conditions: Homo sapiens, Kasumi 1, 72 h, KASUMI-1 cell line (hematological), 72 h; read-out: IC50
Answers are given as log10 of IC50 in nM.

COC[C@]1(CO)O[C@@H](n2cnc3c(N)nc(F)nc32)C[C@@H]1O [Cpd. No. 140]    1.90
C[C@]1(CO)O[C@@H](n2cnc3c(N)nc(F)nc32)C[C@@H]1O [Cpd. No. 126]    1.78
C=C[C@]1(CO)O[C@@H](Nc2[nH]c(=O)ncc2Br)C[C@@H]1O [Cpd. No. 3]    2.70

Please give log10 of IC50, item by item, for the list that follows.
1. CC[C@]1(CO)O[C@@H](n2cnc3c(N)nc(F)nc32)[C@H](O)[C@@H]1O [Cpd. No. 173]
2. CCC[C@]1(CO)O[C@@H](n2cnc3c(N)nc(F)nc32)C[C@@H]1O [Cpd. No. 129]
3. C[C@]1(CO)O[C@@H](n2cc(F)c(N)nc2=O)C[C@@H]1O [Cpd. No. 4]

A:
1: 1.30; 2: 1.78; 3: 2.60

----------
- Test system: cancer cell lines
- assay: Cancer cell proliferation activity (CellTiterGlo, 72 h)
- Assay type: cell-based
- reported-conditions: Homo sapiens, C-33-A, 72 h, C33A cell line, endometrial; 72 h; read-out: IC50
- Procedure: Dose response relationships on cell proliferation was assessed for representative Compounds of the Disclosure on cancer cell lines. […] Cells were cultured in the appropriate media. […] After incubation for 72 h at 37° C. at 5% or 10% CO2 dependent on the medium, cell plates were equilibrated to room temperature for one hour, CellTiterGlo reagent (Promega) was added and luminescence was measured approximately an hour later using a luminometer. […]
Record form. Attribute: IC50. Fill in for each entry.
Answers are plain numbers, in µM.

For orientation, consider the following solved cases.
CC[C@]1(CO)O[C@@H](n2cc(F)c(N)nc2=O)C[C@@H]1O    4.92
C[C@]1(CO)O[C@@H](n2cc(F)c(N)nc2=O)C[C@@H]1O    0.13
CC[C@]1(CO)O[C@@H](n2cnc3c(N)nc(F)nc32)C[C@@H]1O    0.95

Proceeding to the next compound to report its IC50.
Q: Find the recorded IC50 belonging to C=C[C@]1(CO)O[C@@H](Nc2[nH]c(=O)ncc2Br)C[C@@H]1O and report it.
A: 2.67
